Origin of measurements: patent US20250353873A1

- Tested on: human APOE RNA
- Test: Potency (dose response, ED50) in APOE C57BL/6NTac-Apoeem7250 knock-in mice, 8 weeks (Example 15)
- Assay type: in vivo
- Condition description: spinal cord, ICV dose 300 μg
Strand notation (5' to 3'): a small letter for the sugar, then the base; units joined by * are phosphorothioate-linked, units joined directly phosphodiester-linked; [ ] holds rarer units or linkages, { } end groups; capitals alone tell only the bases. [ms] = mesyl phosphoramidate linkage; e = 2'-O-(2-methoxyethyl) (MOE); k = constrained ethyl (cEt); [5mC] = 5-methylcytosine; d = 2'-deoxy (DNA)
Measured endpoint: APOE RNA (% control) Spinal Cord

Substance	Readout value
Aes^mCeoTeoTesGesGksTdsGdzAdzAdzTds^mCdsTdsTdsTdsAdzTksTksAesAe (eA*e[5mC]eTeT*eG*kG*dT*dG[ms]dA[ms]dA[ms]dT*d[5mC]*dT*dT*dT*dA[ms]kT*kT*eA*eA) [Compound No. 1757576]	9 % control
^mCksTksTksGdzGdzTdzGdzAdzAdzTds^mCdsTdsTdsTdsAdsTdsTksAksAdzAk (antisense k[5mC]*kT*kT*dG[ms]dG[ms]dT[ms]dG[ms]dA[ms]dA[ms]dT*d[5mC]*dT*dT*dT*dA*dT*kT*kA*dA[ms]kA) [Compound No. 1785602]	20 % control
TezTeoGeoGksTdsGdzAdzAdzTds^mCdsTdsTdsTdsAdzTksTksAesAesAes^mCe (antisense eT[ms]eTeGkG*dT*dG[ms]dA[ms]dA[ms]dT*d[5mC]*dT*dT*dT*dA[ms]kT*kT*eA*eA*eA*e[5mC]) [Compound No. 1809814]	29 % control
Aks^mCeoTeoTesGesGksTdsGdzAdzAdzTds^mCdsTdsTdsTdsAdzTksTksAesAe (kA*e[5mC]eTeT*eG*kG*dT*dG[ms]dA[ms]dA[ms]dT*d[5mC]*dT*dT*dT*dA[ms]kT*kT*eA*eA) [Compound No. 1809635]	13 % control
1785599: modified oligonucleotide complementary to human APOE RNA (k[5mC]*kT*kT*dG[ms]dG[ms]dT[ms]dG[ms]dA[ms]dA[ms]dT[ms]d[5mC]*dT*dT*dT*dA*dT*kT*kA*dA[ms]kA; antisense) [compound 1785599]	13 % control
